# TARGET SYSTEM: Aurora A (Homo sapiens)
# Construct: gene AURKA
# Sequence (O14965 1-403): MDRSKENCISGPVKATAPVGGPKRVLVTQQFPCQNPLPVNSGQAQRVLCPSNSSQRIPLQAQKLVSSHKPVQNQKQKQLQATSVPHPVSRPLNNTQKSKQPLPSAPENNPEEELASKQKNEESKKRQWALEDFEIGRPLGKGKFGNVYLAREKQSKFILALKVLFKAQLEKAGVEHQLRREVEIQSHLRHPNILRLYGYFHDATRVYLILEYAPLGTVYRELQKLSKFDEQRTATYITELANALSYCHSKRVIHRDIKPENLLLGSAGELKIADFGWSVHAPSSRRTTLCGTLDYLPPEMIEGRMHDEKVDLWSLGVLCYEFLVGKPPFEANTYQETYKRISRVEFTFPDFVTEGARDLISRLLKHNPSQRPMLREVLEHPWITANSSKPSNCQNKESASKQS
# ASSAY PROTOCOL: Z-LYTE kinase assay (peptide/kinase mixture with ATP, fluorescence)
# Format: biochemical
MEASURED PARAMETER: IC50 (µM)

>>> df
                 molecular_string            target_system  test_result
0  C/C=C(/C=O)c1c[nH]c2ccc(O)cc12  Aurora A (Homo sapiens)          122
